Parameter EC50: see the listing below.
- Assay: NIH3T3 cell viability loss – ATP luminescence, mouse fibroblasts, counter-screen, dose response (AID 2010);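 also: cells exposed to compound for about 90 hours before reading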
- Assay type: functional, cell-based
Active and inactive are the calls of the source. Rule as the data show it: actives have a measured EC50 and inactives only a lower limit.
Measurement Name: EC50

INSERT INTO measurements (compound, assay_value) VALUES
  ('Cc1ccccc1N=C(S)N1CCCC(c2nc3ccccc3[nH]2)C1 (stereo not given)', '> 60 µM (not active)'),
  ('O=C(COc1ncnc2cc([N+](=O)[O-])ccc12)NC(=O)NC1CCCCC1', '> 60 µM (not active)'),
  ('COc1ccc2[nH]c(C(=O)N3CCCN(Cc4ccc(F)cc4)CC3)cc2c1', '> 60 µM (not active)'),
  ('O=C(NNc1ccccc1)C(=O)NNS(=O)(=O)c1ccc(CCCl)cc1', '3.48 µM (active)'),
  ('Cc1cccc2sc(NNC(=O)c3ccc(S(=O)(=O)N4CCc5ccccc5C4)cc3)nc12', '2.62 µM (active)');

These data points were gathered from ChEMBL document CHEMBL1201862.
